# run description: MTT cytotoxicity assay, HF-P4
# Assay type: cell-based, human
# test conditions: human, HF-P4 normal human dermal fibroblasts, HF-P4, 15 uM, repeats, read-out: Cell viability %
The label is condition met for viability at 48 h, 15 µM below 60% and condition not met for viability at 48 h, 15 µM equal to or exceeding 60%.

[
  {
    "input smiles": "Cc1ccc(-n2c(-c3ccc(C(=O)NN)cc3)cc3c2cc(-c2ccc(C(=O)NN)cc2)n3-c2ccc(C)cc2)cc1",
    "class": "condition not met"
  }
]

// query # TODO verify viability at 48 h, 15 µM < 60% strictly for this molecule: Cc1ccc(-n2c(-c3ccc(C(=O)N/N=C/c4ccc(O)cc4O)cc3)cc3c2cc(-c2ccc(C(=O)N/N=C/c4ccc(O)cc4O)cc2)n3-c2ccc(C)cc2)cc1
// result condition met

###

assay endpoint: melting point

[
  {
    "compound": "COc1cccc(/C=N/NC(=O)c2ccc(-c3cc4c(cc(-c5ccc(C(=O)N/N=C/c6cccc(OC)c6O)cc5)n4-c4ccc(C)cc4)n3-c3ccc(C)cc3)cc2)c1O [Compound 5]",
    "melting point": "321 to 322 °C"
  }
]

// query Please give the measured melting point for this compound: Cc1ccc(-n2c(-c3ccc(C(=O)N/N=C/c4ccccc4O)cc3)cc3c2cc(-c2ccc(C(=O)N/N=C/c4ccccc4O)cc2)n3-c2ccc(C)cc2)cc1 [Compound 6]
// result 332 to 333 °C

// query Tell me the measured melting point of Cc1ccc(-n2c(-c3ccc(C(=O)N/N=C/c4ccc(O)cc4O)cc3)cc3c2cc(-c2ccc(C(=O)N/N=C/c4ccc(O)cc4O)cc2)n3-c2ccc(C)cc2)cc1 [Compound 4] , please.
// result 328 to 329 °C

// query Dear colleague, I am looking for the recorded melting point of the following compound: Cc1ccc(-n2c(-c3ccc(C(=O)N/N=C/c4cc(F)ccc4O)cc3)cc3c2cc(-c2ccc(C(=O)N/N=C/c4cc(F)ccc4O)cc2)n3-c2ccc(C)cc2)cc1 [Compound 3]
// result 337 to 338 °C

// query Could you tell me which melting point is on file for Cc1ccc(-n2c(-c3ccc(C(=O)NN)cc3)cc3c2cc(-c2ccc(C(=O)NN)cc2)n3-c2ccc(C)cc2)cc1 [Compound 1] ?
// result 312 to 313 °C

// query May I ask what melting point has been recorded for CCN(CC)c1ccc(/C=N/NC(=O)c2ccc(-c3cc4c(cc(-c5ccc(C(=O)N/N=C/c6ccc(N(CC)CC)cc6O)cc5)n4-c4ccc(C)cc4)n3-c3ccc(C)cc3)cc2)c(O)c1 [Compound 2] ?
// result 306 to 307 °C

###

# Tested on: Caov-3 cells
# run description: MTT cytotoxicity assay, Caov-3
# Assay type: cell-based, human
# test conditions: Homo sapiens, Caov-3, 48 h, Caov-3, 10 uM, repeats, read-out: Cell viability %
The compounds listed here are annotated with their viability at 10 µM.
Dear colleague, please return just the value in %, with no unit written.

[
  {
    "input smiles": "COc1cccc(/C=N/NC(=O)c2ccc(-c3cc4c(cc(-c5ccc(C(=O)N/N=C/c6cccc(OC)c6O)cc5)n4-c4ccc(C)cc4)n3-c3ccc(C)cc3)cc2)c1O",
    "unit string": "%",
    "viability at 10 µM": 29.5
  },
  {
    "input smiles": "Cc1ccc(-n2c(-c3ccc(C(=O)NN)cc3)cc3c2cc(-c2ccc(C(=O)NN)cc2)n3-c2ccc(C)cc2)cc1",
    "unit string": "%",
    "viability at 10 µM": 45.1
  },
  {
    "input smiles": "CCN(CC)c1ccc(/C=N/NC(=O)c2ccc(-c3cc4c(cc(-c5ccc(C(=O)N/N=C/c6ccc(N(CC)CC)cc6O)cc5)n4-c4ccc(C)cc4)n3-c3ccc(C)cc3)cc2)c(O)c1",
    "unit string": "%",
    "viability at 10 µM": 52.1
  },
  {
    "input smiles": "Cc1ccc(-n2c(-c3ccc(C(=O)N/N=C/c4ccc(O)cc4O)cc3)cc3c2cc(-c2ccc(C(=O)N/N=C/c4ccc(O)cc4O)cc2)n3-c2ccc(C)cc2)cc1",
    "unit string": "%",
    "viability at 10 µM": 42.9
  }
]

// moving on: another record for viability at 10 µM
// query Given the entry Cc1ccc(-n2c(-c3ccc(C(=O)N/N=C/c4cc(F)ccc4O)cc3)cc3c2cc(-c2ccc(C(=O)N/N=C/c4cc(F)ccc4O)cc2)n3-c2ccc(C)cc2)cc1 , what viability at 10 µM was observed with Caov-3 cells?
// result 65.4

###

# run description: MTT cytotoxicity assay, HF-P4
# Assay type: cell-based, human
# test conditions: human, HF-P4 normal human dermal fibroblasts, HF-P4, 750 nM, repeats, read-out: Cell viability %
assay endpoint: viability at 48 h, 0.75 µM (%)
Response body: numeric value in %, unit text excluded.

Example entries and their recorded answers appear below.
[
  {
    "compound": "Cc1ccc(-n2c(-c3ccc(C(=O)N/N=C/c4cc(F)ccc4O)cc3)cc3c2cc(-c2ccc(C(=O)N/N=C/c4cc(F)ccc4O)cc2)n3-c2ccc(C)cc2)cc1 [Compound 3]",
    "unit string": "%",
    "viability at 48 h, 0.75 µM": 107
  },
  {
    "compound": "Cc1ccc(-n2c(-c3ccc(C(=O)NN)cc3)cc3c2cc(-c2ccc(C(=O)NN)cc2)n3-c2ccc(C)cc2)cc1 [Compound 1]",
    "unit string": "%",
    "viability at 48 h, 0.75 µM": 94
  }
]

// switching to the query compound
// query For Cc1ccc(-n2c(-c3ccc(C(=O)N/N=C/c4ccc(O)cc4O)cc3)cc3c2cc(-c2ccc(C(=O)N/N=C/c4ccc(O)cc4O)cc2)n3-c2ccc(C)cc2)cc1 [Compound 4] , what is its reported viability at 48 h, 0.75 µM?
// result 84.8

###

# run description: MTT cytotoxicity assay, HF-P4
# Format: cell-based, human
# test conditions: human, HF-P4 normal human dermal fibroblasts, HF-P4, 100 nM, repeats, read-out: Cell viability %
viability at 48 h, 0.1 µM values, listed per item
# do not omit the unit; it follows the number

[
  {
    "input smiles": "Cc1ccc(-n2c(-c3ccc(C(=O)N/N=C/c4cc(F)ccc4O)cc3)cc3c2cc(-c2ccc(C(=O)N/N=C/c4cc(F)ccc4O)cc2)n3-c2ccc(C)cc2)cc1",
    "observed value": "95.8%"
  }
]

// query Find the recorded viability at 48 h, 0.1 µM belonging to Cc1ccc(-n2c(-c3ccc(C(=O)N/N=C/c4ccc(O)cc4O)cc3)cc3c2cc(-c2ccc(C(=O)N/N=C/c4ccc(O)cc4O)cc2)n3-c2ccc(C)cc2)cc1 and report it.
// result 102%

// query Fill in: viability at 48 h, 0.1 µM of Cc1ccc(-n2c(-c3ccc(C(=O)NN)cc3)cc3c2cc(-c2ccc(C(=O)NN)cc2)n3-c2ccc(C)cc2)cc1 is ___
// result 101%

// query Sample COc1cccc(/C=N/NC(=O)c2ccc(-c3cc4c(cc(-c5ccc(C(=O)N/N=C/c6cccc(OC)c6O)cc5)n4-c4ccc(C)cc4)n3-c3ccc(C)cc3)cc2)c1O — what was its viability at 48 h, 0.1 µM?
// result 104%

###

# run description: MTT cytotoxicity assay, HF-P4
# Format: cell-based, human
# test conditions: human, HF-P4 normal human dermal fibroblasts, HF-P4, 750 nM, repeats, read-out: Cell viability %
assay endpoint: viability at 48 h, 0.75 µM (%)
Numeric answer only, unit % assumed.

[
  {
    "input smiles": "Cc1ccc(-n2c(-c3ccc(C(=O)N/N=C/c4ccccc4O)cc3)cc3c2cc(-c2ccc(C(=O)N/N=C/c4ccccc4O)cc2)n3-c2ccc(C)cc2)cc1",
    "viability at 48 h, 0.75 µM / %": 97.8
  },
  {
    "input smiles": "COc1cccc(/C=N/NC(=O)c2ccc(-c3cc4c(cc(-c5ccc(C(=O)N/N=C/c6cccc(OC)c6O)cc5)n4-c4ccc(C)cc4)n3-c3ccc(C)cc3)cc2)c1O",
    "viability at 48 h, 0.75 µM / %": 84.2
  }
]

// query So what does the record say about viability at 48 h, 0.75 µM for CCN(CC)c1ccc(/C=N/NC(=O)c2ccc(-c3cc4c(cc(-c5ccc(C(=O)N/N=C/c6ccc(N(CC)CC)cc6O)cc5)n4-c4ccc(C)cc4)n3-c3ccc(C)cc3)cc2)c(O)c1 ?
// result 100

###

Quick list: viability at 48 h, 20 µM per entry.
# run description: MTT cytotoxicity assay, HF-P4
# Format: cell-based, human
# test conditions: human, HF-P4 normal human dermal fibroblasts, HF-P4, 20 uM, repeats, read-out: Cell viability %
Give the figure together with its unit, number first.

For orientation, consider the following solved cases.
[
  {
    "compound": "Cc1ccc(-n2c(-c3ccc(C(=O)N/N=C/c4ccccc4O)cc3)cc3c2cc(-c2ccc(C(=O)N/N=C/c4ccccc4O)cc2)n3-c2ccc(C)cc2)cc1 [Compound 6]",
    "assay endpoint": "viability at 48 h, 20 µM",
    "observed value": "48%"
  },
  {
    "compound": "Cc1ccc(-n2c(-c3ccc(C(=O)NN)cc3)cc3c2cc(-c2ccc(C(=O)NN)cc2)n3-c2ccc(C)cc2)cc1 [Compound 1]",
    "assay endpoint": "viability at 48 h, 20 µM",
    "observed value": "64%"
  }
]

Consider now this further compound.
// query Report viability at 48 h, 20 µM for Cc1ccc(-n2c(-c3ccc(C(=O)N/N=C/c4cc(F)ccc4O)cc3)cc3c2cc(-c2ccc(C(=O)N/N=C/c4cc(F)ccc4O)cc2)n3-c2ccc(C)cc2)cc1 [Compound 3] please.
// result 59%
